Hey, just so you know, these numbers are from paper PMC3961306.

# experimentalTarget: panel of more than 300 wild-type and mutant kinases (313 kinase panel) (Homo sapiens)
# protocolNotes: Kinase profiling in a biochemical assay panel (mobility shift assays and ELISA), %-inhibition at 1 μM; selectivity entropy
# testConditions: kinase TRKC; 1 μM
We begin with a simple list: items and their reported %-inhibition of TRKC.
Note: unit % is implicit; provide only the numeric part.

Some solved entries appear below for comparison.
# compound Cc1ccc(C(=O)Nc2ccc(CN3CCN(C)CC3)c(C(F)(F)F)c2)cc1C#Cc1cnc2cccnn12 [ponatinib] ; its %-inhibition of TRKC = 103

# compound COc1cc2nccc(Oc3ccc(NC(=O)C4(C(=O)Nc5ccc(F)cc5)CC4)cc3)c2cc1OC [cabozantinib] ; its %-inhibition of TRKC = 98

# compound Cc1ccc(Nc2nccc(N(C)c3ccc4c(C)n(C)nc4c3)n2)cc1S(N)(=O)=O [pazopanib] ; its %-inhibition of TRKC = 21

# compound CNC(=O)c1cc(Oc2ccc(NC(=O)Nc3ccc(Cl)c(C(F)(F)F)c3)c(F)c2)ccn1 [regorafenib] ; its %-inhibition of TRKC = 93

# compound CO[C@H]1C[C@@H]2CC[C@@H](C)[C@@](O)(O2)C(=O)C(=O)N2CCCC[C@H]2C(=O)O[C@H]([C@H](C)C[C@@H]2CC[C@@H](OC(=O)C(C)(CO)CO)[C@H](OC)C2)CC(=O)[C@H](C)/C=C(\C)[C@@H](O)[C@@H](OC)C(=O)[C@H](C)C[C@H](C)/C=C/C=C/C=C/1C [temsirolimus] ; its %-inhibition of TRKC = -6.53

# compound CS(=O)(=O)CCNCc1ccc(-c2ccc3ncnc(Nc4ccc(OCc5cccc(F)c5)c(Cl)c4)c3c2)o1 [lapatinib] ; its %-inhibition of TRKC = 4

# compound CC(=O)Nc1cccc(-n2c(=O)n(C3CC3)c(=O)c3c(Nc4ccc(I)cc4F)n(C)c(=O)c(C)c32)c1 [trametinib] ; its %-inhibition of TRKC = -7.43

# compound O=S(=O)(c1cccc2cnccc12)N1CCCNCC1 [fasudil] ; its %-inhibition of TRKC = -5.34

# compound CC(C)(C)c1nc(-c2cccc(NS(=O)(=O)c3c(F)cccc3F)c2F)c(-c2ccnc(N)n2)s1 [dabrafenib] ; its %-inhibition of TRKC = 81

# compound COc1cc2c(Nc3ccc(Br)cc3F)ncnc2cc1OCC1CCN(C)CC1 [vandetanib] ; its %-inhibition of TRKC = 15

Next:
# compound CO[C@H]1C[C@@H]2CC[C@@H](C)[C@@](O)(O2)C(=O)C(=O)N2CCCC[C@H]2C(=O)O[C@H]([C@H](C)C[C@@H]2CC[C@@H](OCCO)[C@H](OC)C2)CC(=O)[C@H](C)/C=C(\C)[C@@H](O)[C@@H](OC)C(=O)[C@H](C)C[C@H](C)/C=C/C=C/C=C/1C [everolimus] ; its %-inhibition of TRKC = -5

# compound CCCS(=O)(=O)Nc1ccc(F)c(C(=O)c2c[nH]c3ncc(-c4ccc(Cl)cc4)cc23)c1F [vemurafenib] ; its %-inhibition of TRKC = 5

----------
# experimentalTarget: panel of more than 300 wild-type and mutant kinases (313 kinase panel) (Homo sapiens, UniProt P68400)
# protocolNotes: Kinase profiling in a biochemical assay panel (mobility shift assays and ELISA), %-inhibition at 1 μM; selectivity entropy
# testConditions: kinase CK2α1/β; 1 μM compound
metric: %-inhibition, CK2α1/β (%)
Note: unit % is implicit; provide only the numeric part.

Some solved entries appear below for comparison.
# molecule `CC(=O)Nc1cccc(-n2c(=O)n(C3CC3)c(=O)c3c(Nc4ccc(I)cc4F)n(C)c(=O)c(C)c32)c1` ; its %-inhibition, CK2α1/β = -3.4

# molecule `Cc1ccc(Nc2nccc(N(C)c3ccc4c(C)n(C)nc4c3)n2)cc1S(N)(=O)=O` ; its %-inhibition, CK2α1/β = -3

# molecule `Cc1nc(Nc2ncc(C(=O)Nc3c(C)cccc3Cl)s2)cc(N2CCN(CCO)CC2)n1` ; its %-inhibition, CK2α1/β = -1.7

Next:
# molecule `COc1cc2c(Nc3ccc(Br)cc3F)ncnc2cc1OCC1CCN(C)CC1` ; its %-inhibition, CK2α1/β = -7

# molecule COc1cc2nccc(Oc3ccc(NC(=O)C4(C(=O)Nc5ccc(F)cc5)CC4)cc3)c2cc1OC [cabozantinib] ; its %-inhibition, CK2α1/β = -2.76
